Reference source for all entries: PubChem BioAssay (NCI)

Experiment: NCI Yeast Anticancer Drug Screen. Data for the CLN2oe strain (AID 163)
Conditions: S. cerevisiae CLN2oe strain, at 11.0 µM
The panel holds about 79,000 compounds, 15% with a hit somewhere; the sample as a whole holds those more often. Calls of active or inactive are those of the source. No stated cut-off is given here; in the data, active means growth inhibition above about 70%; inactive means the rest.
Output constraint: value belongs to True (active), False (inactive)

Field: example entries. Status: answers known.
Query: Recorded test outcome, item `Nc1cc(S(N)(=O)=O)ccc1SSc1ccc(S(N)(=O)=O)cc1N`
Result: False

Query: Now give it for CC1C(C#N)(C#N)C(C#N)=C(N)C1(Cl)[N+](=O)[O-] (configuration not stated) too.
Result: False

Query: Now give it for `COC(=O)c1oc([N+](=O)[O-])c(Cl)c1Cl` too.
Result: True

Query: Now give it for COc1cc([C@@H]2c3cc4c(cc3[C@@H](OC3OC5COC(C)OC5C(O)C3O)[C@H]3COC(=O)[C@H]23)OCO4)cc(OC)c1O (some centres not stated) too.
Result: False

Query: Now give it for `S=c1[nH]nc(-c2ccc(Cl)cc2)s1` too.
Result: False

Others:
Query: Recorded test outcome, item `NNC(=S)Nc1cccc(Cl)c1`
Result: False

Query: Now give it for `COc1ccc(/C=C2\SC(=S)N(C=C3C(=O)NC(=S)NC3=O)C2=O)cc1OC` too.
Result: False

Query: Now give it for CC1CCC2(C(=O)O)CCC3(C)C(=CCC4C5(C)CC(O)C(O)C(C)(CO)C5C(O)CC43C)C2C1C (configuration not stated) too.
Result: False

Query: Now give it for `C=C(CCCO)[C@@H]1CC[C@@](C)(O)[C@H]1C` too.
Result: False
